Ref: ChEMBL document CHEMBL4130584

Test system: PC-12
procedure.text: Antioxidant activity against H2O2-induced cell damage in rat PC12 cells assessed as cell viability at 1 uM after 24 hrs by MTT assay (reference value: 64.34 +/- 1.02 %)
Format: functional
experimental.setup: PC-12, 24 h, read-out: Activity
viability at 1 µM by entry:

compound: C=C1CC[C@H]2C(C)(C)[C@@H](O)CC[C@]2(C)[C@H]1C/C=C1\CCOC1=O
target: PC-12
viability at 1 µM: 66.9%

compound: C=C[C@]1(C)C[C@@H]2OC(=O)C(C)=C2C[C@H]1C(=C)C [ISOGERMAFURENOLIDE]
target: PC-12
viability at 1 µM: 62.5%

compound: CC1=C2C[C@]34O[C@](C)(C[C@H]2OC1=O)[C@H]3CC[C@@H]4C
target: PC-12
viability at 1 µM: 67.4%

compound: CC1=C2C[C@@H]3[C@](C)(CCC[C@@]3(C)O)C[C@]2(O)OC1=O
target: PC-12
viability at 1 µM: 81.2%

compound: C=C(C)C(=O)C[C@@]12OC(=O)C=C(C)[C@@H]1CC[C@@H]2C
target: PC-12
viability at 1 µM: 69.3%

compound: CC1=CC(=O)[C@]23C[C@]24[C@@]1(O)CC[C@]4(C)OC3(C)C
target: PC-12
viability at 1 µM: 72.7%

compound: CC(C)=C1C[C@H]2[C@@H](CC[C@]2(C)O)[C@](C)(O)CC1=O [ZEDOARONDIOL]
target: PC-12
viability at 1 µM: 81.9%

compound: CC1=C2CC(=O)[C@@H](C)CC/C=C(\C)C[C@H]2OC1=O
target: PC-12
viability at 1 µM: 65.4%

compound: CC1=C2CC[C@](C)(O)[C@H]2CC2=C(C)C(=O)O[C@@]2(O)C1
target: PC-12
viability at 1 µM: 82.7%
